Please go through the items and note down their pIC50.
target: Cholinesterase (Equus caballus, UniProt P81908); assay: Inhibition of equine serum BChE using butyrylthiocholine iodide as substrate preincubated for 10 mins followed by substrate addition measured for 5 mins by Ellman's method
Sequence (P81908 whole entry): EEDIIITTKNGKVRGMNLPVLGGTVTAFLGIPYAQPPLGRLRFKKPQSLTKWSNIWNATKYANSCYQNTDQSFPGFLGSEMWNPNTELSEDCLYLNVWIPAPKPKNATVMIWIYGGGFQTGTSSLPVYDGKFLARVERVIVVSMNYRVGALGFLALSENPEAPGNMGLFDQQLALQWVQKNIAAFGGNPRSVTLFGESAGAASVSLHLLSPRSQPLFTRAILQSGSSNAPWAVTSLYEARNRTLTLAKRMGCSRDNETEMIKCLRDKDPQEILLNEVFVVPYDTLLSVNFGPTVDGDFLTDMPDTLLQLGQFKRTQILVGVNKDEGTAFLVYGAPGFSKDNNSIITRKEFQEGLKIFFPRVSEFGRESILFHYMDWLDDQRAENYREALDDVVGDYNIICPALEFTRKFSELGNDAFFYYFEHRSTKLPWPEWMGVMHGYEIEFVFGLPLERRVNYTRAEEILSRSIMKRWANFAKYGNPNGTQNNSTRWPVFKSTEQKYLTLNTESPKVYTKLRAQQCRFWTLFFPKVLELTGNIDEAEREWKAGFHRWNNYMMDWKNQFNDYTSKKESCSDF
Field pIC50 (float): negative decimal logarithm of the concentration in molar.

Input line: // map Clc1cccc(C[n+]2cccc(Cn3c4c(c5ccccc53)CCCC4)c2)c1 to recorded pIC50 (system: Cholinesterase (Equus caballus, UniProt P81908))
Output line: 6.60

Input line: Please give the result for Clc1ccc(C[n+]2ccc(Cn3c4c(c5ccccc53)CCCC4)cc2)cc1 too.
Output line: 5.68

Input line: Same lookup for Clc1ccc(C[n+]2cccc(Cn3c4c(c5ccccc53)CCCC4)c2)cc1 , please.
Output line: 6.66

Input line: Same question for Clc1ccccc1C[n+]1ccc(Cn2c3c(c4ccccc42)CCCC3)cc1 please.
Output line: 6.54

Input line: Quick one: Cc1cccc(C[n+]2cccc(Cn3c4c(c5ccccc53)CCCC4)c2)c1
Output line: 6.96

Input line: And Fc1cccc(C[n+]2ccc(Cn3c4c(c5ccccc53)CCCC4)cc2)c1 ?
Output line: 6.01

Input line: Next compound up: Fc1ccccc1C[n+]1ccc(Cn2c3c(c4ccccc42)CCCC3)cc1
Output line: 6.20

Input line: Now give it for Cc1ccccc1C[n+]1cccc(Cn2c3c(c4ccccc42)CCCC3)c1 too.
Output line: 6.42

Input line: Same question for c1ccc(C[n+]2ccc(Cn3c4c(c5ccccc53)CCCC4)cc2)cc1 please.
Output line: 6.32

Input line: Lookup Clc1cccc(C[n+]2ccc(Cn3c4c(c5ccccc53)CCCC4)cc2)c1
Output line: 6.59
